# System: A549
# Assay Details: Antiproliferative activity against A549 cells after 72 hrs by MTT assay
# Format: functional, cell-based
# Cond: Homo sapiens, A549, 72 h
Some compounds, each annotated with its measured IC50.
Entry rule: numbers only, all in µM.

Here are 5 compounds together with their reported answers.
[
  {
    "Compound": "CN(Cc1cnc2nc(N)nc(N)c2n1)c1ccc(C(=O)N[C@@H](CCC(=O)NO)C(=O)O)cc1",
    "Observed Property": "IC50",
    "Unit Abbreviation": "µM",
    "Endpoint Result": 6
  },
  {
    "Compound": "CN(Cc1cnc2nc(N)nc(N)c2n1)c1ccc(C(=O)N[C@@H](CCC(=O)N2CCC[C@H]2C(=O)NO)C(=O)O)cc1",
    "Observed Property": "IC50",
    "Unit Abbreviation": "µM",
    "Endpoint Result": 7.5
  },
  {
    "Compound": "NC1=NC(=O)C2N=C(CNc3ccc(C(=O)N[C@@H](CCC(=O)N4CCC[C@H]4C(=O)NO)C(=O)O)cc3)C=NC2=N1 (some centres not stated)",
    "Observed Property": "IC50",
    "Unit Abbreviation": "µM",
    "Endpoint Result": 130
  },
  {
    "Compound": "CN(Cc1cnc2nc(N)nc(N)c2n1)c1ccc(C(=O)N[C@@H](CCC(=O)N[C@@H](Cc2ccccc2)C(=O)NO)C(=O)O)cc1",
    "Observed Property": "IC50",
    "Unit Abbreviation": "µM",
    "Endpoint Result": 6.5
  },
  {
    "Compound": "CN(Cc1cnc2nc(N)nc(N)c2n1)c1ccc(C(=O)N[C@@H](CCC(=O)O)C(=O)O)cc1 [METHOTREXATE]",
    "Observed Property": "IC50",
    "Unit Abbreviation": "µM",
    "Endpoint Result": 0.1
  }
]

Specify IC50 for Nc1nc2ncc(CNc3ccc(C(=O)N[C@@H](CCC(=O)NO)C(=O)O)cc3)nc2c(=O)[nH]1 , system A549. 100

Give A549 IC50 for the following compound: Nc1nc2ncc(CNc3ccc(C(=O)N[C@@H](CCC(=O)N[C@@H](Cc4ccccc4)C(=O)NO)C(=O)O)cc3)nc2c(=O)[nH]1 110
